molecular target: hAM1R (human, UniProt Q16602); experiment: cell-based or functional assay
Numbered stars: 1 amine (or outer) side, 2 acyl side, 3 side chain; on linkers, the order of the positions; unused ones are H or OH. Bridge positions count the residues as written; N and C are the ends. Square brackets hold non-standard residues; d marks the D form. Ends that are not written are not given here. * marks the point of attachment. C20 diacid = O=C(O)CCCCCCCCCCCCCCCCCCC(=O)*; γGlu = O=C(O)[C@H](CCC(=O)[*:2])N[*:1]; Hyp = O=C(O)[C@@H]1C[C@@H](O)CN1

{"columns": ["binder", "measurementUnits", "valueRelationSign", "hAM1R EC50 (cAMP)"],
 "data": [
  ["KCNTATCTVQRLAHQIYQFTDKDKDNVAPRTKVGSNG[Hyp]-NH2 (disulfide 2-7 (inferred); ends not checked) [SEQ ID NO: 20]", "nM", ">", 5000],
  ["GCRTGTCTVQRLAHQIYQFTDKDKDNVAPRTNIGPQGY [SEQ ID NO: 160]", "nM", "=", 2980],
  ["GCRTGTCTVQRLAHQIYQFTDKDKDNVAPRTNISPNG[Hyp]-NH2 (disulfide 2-7 (inferred); ends not checked) [SEQ ID NO: 170]", "nM", "=", 2980],
  ["KCNTATCTVQRLAHQIYQFADKDKDNVAPPTNVGSNG[Hyp]-NH2 (disulfide 2-7 (inferred); ends not checked) [SEQ ID NO: 23]", "nM", ">", 5000],
  ["GCRFGTCTVQWLAHQIYQFTDKDKDNVAPRTKIGPQG[Hyp]-NH2 (disulfide 2-7 (inferred); ends not checked) [SEQ ID NO: 336]", "nM", "=", 738],
  ["KCNTATCTVQWLAHQIYQFTDKDKANVAPPTNVGSNG[Hyp]-NH2 (disulfide 2-7 (inferred); ends not checked) [SEQ ID NO: 314]", "nM", ">", 5000],
  ["{C20 diacid-γGlu}-KCNTATCTVQRLAHQIAQYTDKDKDNVAPPTNVGSNG[Hyp]-NH2 (disulfide 2-7 (inferred); not fully specified; ends not checked) [SEQ ID NO: 71]", "nM", ">", 5000],
  ["{C20 diacid-γGlu}-KCNTATCTVQRLAHQIAQFYDKDKDNVAPPTNVGSNG[Hyp]-NH2 (disulfide 2-7 (inferred); not fully specified; ends not checked) [SEQ ID NO: 94]", "nM", ">", 5000],
  ["GCRFGTCTVQWLAHQIYQFTDKDKDNVAPRTKISPQG[Hyp]-NH2 (disulfide 2-7 (inferred); ends not checked) [SEQ ID NO: 350]", "nM", "=", 1180]
]}
